Field: Ratio IC50. Provide a value for each of the compounds that follow.
# Study target: Glutamate NMDA receptor (Rattus norvegicus) (UniProt P35439+Q00959+Q00960+Q00961+Q62645+Q8VHN2+Q9R1M7)
# Assay method text: Ratio of IC50 for displacement of [3H]-MK-801 from rat cortical membranes NMDA receptor in presence of 30 uM spermine to IC50 for displacement of [3H]-MK-801 from rat cortical membranes NMDA receptor in absence of 30 spermine
# answer = number (no unit)

// lookup Ratio IC50 for N=C(N)c1ccc(NCCCCNc2ccc(C(=N)N)cc2)cc1 17.2

// lookup Ratio IC50 for CC(C)NC(=N)c1ccc(NC(=O)c2cccc(C(=O)Nc3ccc(C(=N)NC(C)C)cc3)n2)cc1 10.8

// lookup Ratio IC50 for N=C(N)c1ccc(N2CCN(c3ccc(C(=N)N)cc3)CC2)cc1 26.2

// lookup Ratio IC50 for N=C(N)c1ccc(OC(=O)c2ccc(C(=O)Oc3ccc(C(=N)N)cc3)cc2)cc1 [BIS(4-CARBAMIMIDOYLPHENYL)TEREPHTHALATE] 3.98

// lookup Ratio IC50 for N=C(N)c1ccc(-c2ccc(-c3ccc(-c4ccc(C(=N)N)cc4)nc3)cn2)cc1 1.24

// lookup Ratio IC50 for N=C(N)c1ccc(-c2ccc(-c3ccc(-c4ccc(C(=N)N)o4)s3)s2)o1 4.26

// lookup Ratio IC50 for CCCC/N=C(/N)c1ccc(N2CCN(c3ccc(/C(N)=N\CCCC)cc3)CC2)cc1 16

// lookup Ratio IC50 for N=C(N)c1ccc(NCCCCCCCNc2ccc(C(=N)N)cc2)cc1 5.37

// lookup Ratio IC50 for N=C(N)c1ccc(NCCCNc2ccc(C(=N)N)cc2)cc1 17
